Hey, just so you know, these numbers are from BindingDB's records for doi:10.7270/Q2FF3QRT.

# Target under test: M-phase inducer phosphatase 2 (Homo sapiens)
# Sequence (P30305 whole entry): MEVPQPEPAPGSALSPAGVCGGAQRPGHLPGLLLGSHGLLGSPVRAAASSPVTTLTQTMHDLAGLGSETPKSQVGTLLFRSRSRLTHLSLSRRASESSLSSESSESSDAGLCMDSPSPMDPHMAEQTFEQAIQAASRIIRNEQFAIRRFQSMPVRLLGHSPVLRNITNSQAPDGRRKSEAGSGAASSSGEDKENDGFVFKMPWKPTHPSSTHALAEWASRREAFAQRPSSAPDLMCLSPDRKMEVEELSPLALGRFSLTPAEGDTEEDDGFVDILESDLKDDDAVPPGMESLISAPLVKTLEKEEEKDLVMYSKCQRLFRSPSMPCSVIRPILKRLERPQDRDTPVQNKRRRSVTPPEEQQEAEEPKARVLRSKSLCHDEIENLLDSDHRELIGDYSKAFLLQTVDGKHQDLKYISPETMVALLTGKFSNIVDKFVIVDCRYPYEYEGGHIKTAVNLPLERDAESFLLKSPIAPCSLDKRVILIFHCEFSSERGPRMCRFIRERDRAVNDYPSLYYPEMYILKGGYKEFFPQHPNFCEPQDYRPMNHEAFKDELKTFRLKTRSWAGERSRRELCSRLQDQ
Endpoint label: pIC50
Scale note: pIC50 = -log10(concentration in M).

-- ask Fill in the blank: the reported pIC50 of CCn1nc(-c2ccccc2)nc2c(=O)n(C)c(=O)nc1-2 is ____.
-- reply 6.65

-- ask Fill in the blank: the reported pIC50 of COc1ccc(Cn2c(C)nc3c(c2=O)c2nc4ccccc4nc2n3Cc2ccco2)cc1 is ____.
-- reply 4.50

-- ask Fill in the blank: the reported pIC50 of CCCCC[C@H](O)C=C[C@H]1C=CC(=O)[C@@H]1C/C=C\CCCC(=O)O is ____.
-- reply 4.37
